Origin of measurements: patent US6927228B2

Below: a set of entries, each annotated with reported Kd.
system: PPARγ receptors (Homo sapiens, UniProt P37231)
experiment_description: PPARγ binding test, competition with tritiated BRL 49,653
Set-up: made in house; host or cells: Sf9 insect cells (recombinant baculovirus)
condition_set: hydroxyapatite gel, receptor from Sf9 insect cells, read-out: Binding of PPAR-γ Kd
outcome_measure: Kd (nM)

# compound, outcome_measure, reported_result
data = [
    ("CN(Cc1cccc(-c2ccc(CC3SC(=O)NC3=O)cc2)c1)C(=O)OC(C)(C)C (stereo not shown)", "Kd", 289),
    ("CN(Cc1cccc(-c2ccc(CC3SC(=O)NC3=O)cc2)c1)C(=O)CCc1ccccc1 (stereo not shown)", "Kd", 72.3),
    ("CN(CCOc1ccc(C[C@H](OCC(F)(F)F)C(=O)O)cc1)c1nc2ccccc2o1 [Reference 2: SB 219994, reference compound]", "Kd", 0.5),
    ("CN(Cc1cccc(-c2ccc(CC3SC(=O)NC3=O)cc2)c1)C(=O)Nc1ccccc1 (stereo not shown)", "Kd", 800),
    ("CCO[C@@H](Cc1ccc(-c2cccc(CN(C)C(=O)c3ccccc3)c2)cc1)C(=O)O", "Kd", 24),
    ("CN(Cc1cccc(-c2ccc(CC3SC(=O)NC3=O)cc2)c1)C(=O)OCC1c2ccccc2-c2ccccc21 (stereo not shown)", "Kd", 190),
    ("CN(Cc1cccc(-c2ccc(CC3SC(=O)NC3=O)cc2)c1)c1ccccn1 (stereo not shown)", "Kd", 263),
]

----------
system: PPARγ receptors (Homo sapiens, UniProt P37231)
experiment_description: PPARγ transactivation test
Assay type: cell-based
Parameters: expressed in transfected cells
condition_set: concentration of 1 μM, relative to SB 219994 = 100%

# molecule, activation at 1 µM, %
records = [
    ("CCCN(Cc1cccc(-c2ccc(C=C3SC(=O)NC3=O)cc2)c1)C(=O)c1ccccc1", 88.6),
    ("CN(Cc1cccc(-c2ccc(CC3SC(=O)NC3=O)cc2)c1)C(=O)C(C)(C)C (stereo not drawn)", 95.3),
    ("CN(Cc1cccc(-c2ccc(CC3SC(=O)NC3=O)cc2)c1)c1ccccn1 (stereo not drawn)", 42.9),
]

----------
system: PPARγ receptors (Homo sapiens, UniProt P37231)
experiment_description: PPARγ binding test, competition with tritiated BRL 49,653
condition_set: hydroxyapatite gel, receptor from Sf9 insect cells, read-out: Binding of PPAR-γ Kd
Procedure: The technique of adsorption on hydroxyapatite gel was used to separate the receptor-bound ligand from the free ligand. The human PPARγ receptor was prepared from Sf9 insect cells infected with a recombinant baculovirus. The results are expressed as a Kd value (nM) which represents the equilibrium dissociation constant obtained for each compound. The agonist activity of the compounds according to the invention towards PPARγ receptors may be evaluated by binding tests and transactivation tests.
Below: a set of entries, each annotated with reported Kd.

# molecule, system, Kd [nM]
records = [
    ("CN(Cc1cccc(-c2ccc(CC3SC(=O)NC3=O)cc2)c1)C(=O)c1ccccc1 (stereo not shown)", "PPARγ receptors (Homo sapiens, UniProt P37231)", 55),
    ("CN(Cc1cccc(-c2ccc(CC3SC(=O)NC3=O)cc2)c1)C(=O)C(C)(C)C (stereo not shown)", "PPARγ receptors (Homo sapiens, UniProt P37231)", 76.6),
    ("CCCCCCCC(=O)N(C)Cc1cccc(-c2ccc(CC3SC(=O)NC3=O)cc2)c1 (stereo not shown)", "PPARγ receptors (Homo sapiens, UniProt P37231)", 2),
    ("CCCCCCCCC(=O)N(C)Cc1cccc(-c2ccc(CC3SC(=O)NC3=O)cc2)c1 (stereo not shown)", "PPARγ receptors (Homo sapiens, UniProt P37231)", 7),
]

----------
Below: a set of entries, each annotated with reported activation at 1 µM.
system: PPARα receptors (Homo sapiens, UniProt Q07869)
Construct: expressed in transfected cells
Sequence (Q07869 whole entry): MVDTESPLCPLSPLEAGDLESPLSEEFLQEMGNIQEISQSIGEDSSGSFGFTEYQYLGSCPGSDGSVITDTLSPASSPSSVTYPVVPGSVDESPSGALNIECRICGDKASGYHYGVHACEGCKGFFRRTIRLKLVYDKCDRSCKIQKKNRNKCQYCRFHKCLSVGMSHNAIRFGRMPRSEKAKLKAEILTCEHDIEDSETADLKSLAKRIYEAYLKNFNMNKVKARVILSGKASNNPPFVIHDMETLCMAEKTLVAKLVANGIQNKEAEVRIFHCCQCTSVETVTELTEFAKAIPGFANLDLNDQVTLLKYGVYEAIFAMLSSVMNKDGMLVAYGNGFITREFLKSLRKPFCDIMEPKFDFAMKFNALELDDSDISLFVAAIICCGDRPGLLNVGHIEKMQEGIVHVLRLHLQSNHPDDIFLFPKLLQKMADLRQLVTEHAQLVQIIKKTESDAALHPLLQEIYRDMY
experiment_description: PPARα transactivation test
Format: cell-based
condition_set: concentration of 1 μM, relative to Wy 14643 = 100%

# compound, activation at 1 µM [%]
rows = [
    ("CN(Cc1cccc(-c2ccc(CC3SC(=O)NC3=O)cc2)c1)c1ccccn1 (centres unmarked)", 8.2),
    ("CN(Cc1cccc(-c2ccc(CC3SC(=O)NC3=O)cc2)c1)C(=O)C(C)(C)C (centres unmarked)", 7.5),
    ("CN(Cc1cccc(-c2ccc(CC3SC(=O)NC3=O)cc2)c1)C(=O)OCC1c2ccccc2-c2ccccc21 (centres unmarked)", 14.9),
    ("CCCCCCC(=O)N(C)Cc1cccc(-c2ccc(CC3SC(=O)NC3=O)cc2)c1 (centres unmarked)", 11),
    ("CCCCCCCCC(=O)N(C)Cc1cccc(-c2ccc(CC3SC(=O)NC3=O)cc2)c1 (centres unmarked)", 0),
    ("CCOc1ccc(C(=O)N(C)Cc2cccc(-c3ccc(CC4SC(=O)NC4=O)cc3)c2)cc1OCC (centres unmarked)", 1.1),
    ("CCCN(Cc1cccc(-c2ccc(C=C3SC(=O)NC3=O)cc2)c1)C(=O)c1ccccc1", 2.1),
    ("CCCCCCCCCC(=O)N(C)Cc1cccc(-c2ccc(CC3SC(=O)NC3=O)cc2)c1 (centres unmarked)", 0),
    ("CN(Cc1cccc(-c2ccc(CC3SC(=O)NC3=O)cc2)c1)C(=O)OC(C)(C)C (centres unmarked)", 2.4),
    ("CCCCCCCC(=O)N(C)Cc1cccc(-c2ccc(CC3SC(=O)NC3=O)cc2)c1 (centres unmarked)", 17.6),
    ("CN(Cc1cccc(-c2ccc(CC3SC(=O)NC3=O)cc2)c1)C(=O)Nc1ccccc1 (centres unmarked)", 0),
]

----------
Below: a set of entries, each annotated with reported activation at 1 µM.
system: PPARα receptors (Homo sapiens)
Construct: expressed in transfected cells
experiment_description: PPARα transactivation test
Format: cell-based
condition_set: concentration of 1 μM, relative to Wy 14643 = 100%

# compound, unit, activation at 1 µM
rows = [
    ("CCO[C@@H](Cc1ccc(-c2cccc(CN(C)C(=O)c3ccccc3)c2)cc1)C(=O)O", "%", 0),
    ("CN(Cc1cccc(-c2ccc(CC3SC(=O)NC3=O)cc2)c1)C(=O)CCc1ccccc1 (stereo not shown)", "%", 8.7),
    ("CN(Cc1ccccc1)C(=O)c1cccc(-c2ccc(CC3SC(=O)NC3=O)cc2)c1 (stereo not shown)", "%", 8.9),
    ("CN(Cc1cccc(-c2ccc(CC3SC(=O)NC3=O)cc2)c1)C(=O)c1ccccc1 (stereo not shown)", "%", 8.2),
]

----------
Below: a set of entries, each annotated with reported activation at 1 µM.
system: PPARγ receptors (Homo sapiens, UniProt P37231)
Sequence (P37231 1-505): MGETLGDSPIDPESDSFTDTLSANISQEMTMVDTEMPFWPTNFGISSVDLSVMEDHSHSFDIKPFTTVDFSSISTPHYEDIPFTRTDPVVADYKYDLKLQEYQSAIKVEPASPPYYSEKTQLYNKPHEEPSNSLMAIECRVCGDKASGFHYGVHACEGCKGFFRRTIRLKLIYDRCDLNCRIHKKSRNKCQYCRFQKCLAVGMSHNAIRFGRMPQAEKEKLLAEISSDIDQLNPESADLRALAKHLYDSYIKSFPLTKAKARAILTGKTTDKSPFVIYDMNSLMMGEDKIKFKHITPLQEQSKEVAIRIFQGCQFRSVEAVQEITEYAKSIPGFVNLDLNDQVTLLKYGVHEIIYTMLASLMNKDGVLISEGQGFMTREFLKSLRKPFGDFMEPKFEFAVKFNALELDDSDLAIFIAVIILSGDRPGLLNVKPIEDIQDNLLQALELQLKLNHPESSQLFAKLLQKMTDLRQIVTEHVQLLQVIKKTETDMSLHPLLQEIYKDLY
experiment_description: PPARγ transactivation test
Type: cell-based
Set-up: expressed in transfected cells
condition_set: concentration of 1 μM, relative to SB 219994 = 100%
outcome_measure: activation at 1 µM

# compound, system, reported_result
measured = [
    ("CN(Cc1cccc(-c2ccc(CC3SC(=O)NC3=O)cc2)c1)C(=O)CCc1ccccc1 (stereo not shown)", "PPARγ receptors (Homo sapiens, UniProt P37231)", "95%"),
    ("CN(Cc1cccc(-c2ccc(CC3SC(=O)NC3=O)cc2)c1)C(=O)OCC1c2ccccc2-c2ccccc21 (stereo not shown)", "PPARγ receptors (Homo sapiens, UniProt P37231)", "90%"),
    ("CCOc1ccc(C(=O)N(C)Cc2cccc(-c3ccc(CC4SC(=O)NC4=O)cc3)c2)cc1OCC (stereo not shown)", "PPARγ receptors (Homo sapiens, UniProt P37231)", "79.8%"),
    ("CCO[C@@H](Cc1ccc(-c2cccc(CN(C)C(=O)c3ccccc3)c2)cc1)C(=O)O", "PPARγ receptors (Homo sapiens, UniProt P37231)", "70.2%"),
]
